Biological target: UniProt:P08183
Sequence (P08183 whole entry): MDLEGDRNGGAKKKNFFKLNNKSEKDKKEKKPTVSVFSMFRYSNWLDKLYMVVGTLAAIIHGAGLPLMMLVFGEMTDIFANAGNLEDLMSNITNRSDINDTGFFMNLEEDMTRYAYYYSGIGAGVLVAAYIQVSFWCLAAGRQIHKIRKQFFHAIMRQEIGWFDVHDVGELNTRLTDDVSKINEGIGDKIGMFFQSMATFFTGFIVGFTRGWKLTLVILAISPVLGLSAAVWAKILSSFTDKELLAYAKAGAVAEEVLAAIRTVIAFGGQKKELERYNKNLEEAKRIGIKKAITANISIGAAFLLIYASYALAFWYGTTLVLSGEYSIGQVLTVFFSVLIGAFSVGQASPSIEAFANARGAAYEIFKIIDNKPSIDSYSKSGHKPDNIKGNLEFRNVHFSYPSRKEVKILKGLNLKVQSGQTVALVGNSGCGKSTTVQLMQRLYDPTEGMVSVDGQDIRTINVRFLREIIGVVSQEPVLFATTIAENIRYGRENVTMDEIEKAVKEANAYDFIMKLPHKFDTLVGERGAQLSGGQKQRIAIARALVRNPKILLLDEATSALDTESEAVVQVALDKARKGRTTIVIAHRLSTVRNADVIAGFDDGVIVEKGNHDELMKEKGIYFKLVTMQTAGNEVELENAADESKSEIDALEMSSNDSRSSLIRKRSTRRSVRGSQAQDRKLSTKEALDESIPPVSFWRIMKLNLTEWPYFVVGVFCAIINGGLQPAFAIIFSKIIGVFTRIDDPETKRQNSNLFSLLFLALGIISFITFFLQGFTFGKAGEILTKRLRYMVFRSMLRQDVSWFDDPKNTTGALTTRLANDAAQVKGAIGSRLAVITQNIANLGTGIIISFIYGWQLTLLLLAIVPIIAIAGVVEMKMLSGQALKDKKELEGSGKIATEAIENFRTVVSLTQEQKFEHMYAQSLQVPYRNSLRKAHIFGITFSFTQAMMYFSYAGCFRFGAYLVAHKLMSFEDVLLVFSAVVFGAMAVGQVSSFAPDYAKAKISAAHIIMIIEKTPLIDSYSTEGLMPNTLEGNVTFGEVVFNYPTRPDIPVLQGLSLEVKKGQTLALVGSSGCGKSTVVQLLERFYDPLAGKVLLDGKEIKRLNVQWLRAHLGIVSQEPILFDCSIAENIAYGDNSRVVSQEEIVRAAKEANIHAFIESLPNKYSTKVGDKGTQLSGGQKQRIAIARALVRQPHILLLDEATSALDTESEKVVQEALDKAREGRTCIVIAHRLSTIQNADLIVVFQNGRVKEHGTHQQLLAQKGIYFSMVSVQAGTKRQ
Assay: Inhibition of P-gp mediated efflux-pump activity in human MDR1 gene transfected mouse L5178 Y cells at 4 ug/mL by rhodamine 123 accumulation test
Assay type: cell-based
Fluorescence intensity reference

{"Molecule": "CC1(C)[C@@H]2/C=C(\\CO)C(=O)[C@@H](OC(=O)/C=C/c3ccccc3)C[C@H](COC(=O)c3ccccc3)[C@H](O)C[C@H]3O[C@]3(C)CC[C@@H]21", "Target Under Test": "UniProt:P08183", "Fluorescence intensity": 882.2}
{"Molecule": "C/C1=C\\[C@@H]2[C@H](CC[C@@]3(C)O[C@@H]3C[C@@H](O)[C@@H](C)CC(OC(=O)c3ccccc3)C1=O)C2(C)C (some centres undefined)", "Target Under Test": "UniProt:P08183", "Fluorescence intensity": 212.6}
{"Molecule": "C/C1=C\\[C@@H]2[C@H](CC[C@@]3(C)O[C@@H]3C[C@@H](O)[C@@H](COC(=O)c3ccccc3)C[C@H](OC(=O)/C=C/c3ccccc3)C1=O)C2(C)C", "Target Under Test": "UniProt:P08183", "Fluorescence intensity": 685.9}
{"Molecule": "C/C1=C\\[C@@H]2[C@H](CC[C@@]3(C)O[C@@H]3[C@H]3[C@@H](O)[C@@H](C)C[C@]3(OC(=O)/C=C/c3ccccc3)C1=O)C2(C)C", "Target Under Test": "UniProt:P08183", "Fluorescence intensity": 449.2}
